- Test system: Plasmodium falciparum
- Experiment description: NOVARTIS: Inhibition of Plasmodium falciparum W2 (drug-resistant) proliferation in erythrocyte-based infection assay
- Assay type: functional, organism-based
- Reported conditions: Plasmodium falciparum, W2; read-out: EC50
Property label: log10(EC50) (log10 of the value in nM)

Compound: CCCCCN(C(=O)COCc1ccccc1)C(CC)c1nc2ccccc2c(=O)n1-c1cccc(Cl)c1 (stereo unspecified)
log10(EC50): 2.93

Compound: c1ccc2cc3c(Nc4ccc(N5CCOCC5)cc4)ccnc3cc2c1
log10(EC50): 1.92

Compound: CCOC(=O)C1=C(C)N=c2sc(=Cc3cc(Cl)ccc3O)c(=O)n2C1c1ccc2c(c1)OCO2 (stereo unspecified)
log10(EC50): 3.12

Compound: CC(=O)Nc1c(C)cc(Cl)cc1Cl
log10(EC50): 2.82

Compound: C/C=C/[P+](c1ccccc1)(c1ccccc1)c1ccccc1
log10(EC50): 2.11

Compound: C=C[C@H]1CN2CC[C@H]1C[C@@H]2[C@@H](OC(=O)CCCCl)c1ccnc2ccccc12
log10(EC50): 1.99

Compound: C=CC1CC23CC(C(OC(=O)CCC(=O)O)c4ccnc5ccc(OC)cc45)N2CCC13 (stereo unspecified)
log10(EC50): 1.89

Compound: Cc1cc(C)[n+](C)n1CC(O)Cn1c2ccccc2c2ccccc21 (stereo unspecified)
log10(EC50): 2.84

----------
// CC50 lookup, one value per entry
- Experiment description: NOVARTIS: Cytotoxicity against human hepatocellular carcinoma cell line (Huh7)
- Type: toxicity, cell-based, Huh-7
- Reported conditions: Huh7 cells (hepatocellular carcinoma cell line)

Compound: CCOc1ccc2c(c1)c1nnc(-c3ccc4c(c3)OCO4)c-1cn2Cc1ccc(Cl)cc1
CC50: 14.6 µM
--
Compound: OC(CNCC1COc2ccccc2O1)c1ccccc1 (stereo not given)
CC50: > 100 µM
--
Compound: O=C(Nc1ccc2nc3n(c(=O)c2c1)CCCCC3)C(=O)N1CCN(c2cccc(Cl)c2)CC1
CC50: > 100 µM
--
Compound: CCOc1ccccc1-n1c(C(C)N(Cc2ccccc2)C(=O)Nc2ccccc2OC)nc2ccccc2c1=O (stereo not given)
CC50: > 6.65 µM
--
Compound: COc1cc(CN(C)c2ccc3nc(N)nc(N)c3c2)cc(OC)c1OC
CC50: > 10 µM
--
Compound: c1ccc(CN2CCC(NCc3c[nH]c4ccccc34)CC2)cc1
CC50: > 10 µM
--
Compound: O=C1c2ccccc2C(=O)c2c1ccc1nonc21
CC50: > 10 µM
--
Compound: CC(C)CCNC(=O)C1CSC(c2ccc(F)cc2)N1C(=O)c1ccc(Cl)cc1Cl (stereo not given)
CC50: > 100 µM
--
Compound: Cc1ccc(N(C)C(=O)CCNS(=O)(=O)c2cc(Br)cnc2N)cc1
CC50: > 100 µM
--
Compound: CCCc1cc(-c2onc(C)c2-c2ccc(C(=O)OCC)o2)c(O)cc1OC
CC50: 18.5 µM
--
Compound: Cc1cc(N2CCN(C3CCCC3)CC2)n2c(nc3ccccc32)c1C#N
CC50: > 100 µM
--
Compound: CCOc1ccccc1NC(=O)C1C(c2ccccc2)=C1c1ccccc1
CC50: > 10 µM
--
Compound: O=C1c2ccccc2-c2nc3nnnn3nc21
CC50: > 10 µM
--
Compound: O=C(Nc1cccc(N2CCC(NCC3CCCCC3)CC2)c1)C1CC1
CC50: > 100 µM
--
Compound: COc1cc(C(=O)NC(c2ccc3c(c2)OCO3)c2cc(Cl)c3cccnc3c2O)cc(OC)c1OC (stereo not given)
CC50: > 10 µM

Where do the numbers come from? From ChEMBL document CHEMBL1156829.
